Test Details: plasmodial surface anion channel blockers, osmotic lysis – cell-based, P. falciparum Indochina, OD700, 2 h, primary screen (AID 1155);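 note: lysis reports solute entry through the parasite surface anion channel PSAC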
Cond: P. falciparum Indochina infected erythrocytes, higher = more signal, called active from +8 up or from −8 down
Decision: z-score compared against 3; not below it gives true (1), below it gives false (0).

Ask: Could you please find out whether C=CC[C@@]1(C(=O)N(C)C)N=C(c2ccc(OCCCO)cc2)O[C@@H]1c1ccccc1CN=[N+]=[N-] has z-score that meets 3 or exceeds it?
Reply: true (1)

Ask: Entry CC(C)(C)N1CC=CC23O[C@@H]4/C=C\CCCOC(=O)C4[C@H]2C(=O)N(CCCO)[C@@H]3C1=O (some centres not stated) : is its z-score no less than 3?
Reply: false (0)

Ask: Say whether COCCOC(=O)N1C(=O)[C@@]2(c3cc(C#CCCO)ccc31)[C@H](c1ccccc1OCCO)N1[C@H](c3ccccc3)[C@H](c3ccccc3)OC(=O)[C@H]1[C@@H]2C(N)=O shows z-score of 3 or more.
Reply: true (1)

Ask: Exam item: decide whether the reported z-score for CCCC=C(CCC)[C@@H](NC(=O)c1ccc(C(F)(F)F)cc1)c1ccc(C(F)(F)F)cc1 is at least 3.
Reply: false (0)

Ask: Identify whether the reported z-score of the following compound is 3 or greater: COc1cc(CO)cc(I)c1O[C@H]1C=C(C(=O)NCCO)C[C@@H]2O[C@H]12
Reply: true (1)

Ask: Kindly determine if z-score recorded for COc1cc(CO)cc(I)c1O[C@H]1C=C(C(=O)NCCO)C[C@@H](NC2CCCCCC2)[C@@H]1O is above or exactly 3.
Reply: false (0)

Source: PubChem BioAssay
